- Test System: Cox-2 (Homo sapiens)
- Construct: active only after incubation of human whole blood with LPS, which induces COX-2; endogenous in cells; host or cells: fresh heparinized human whole blood from volunteers, incubated with LPS
- Experiment Notes: Human whole blood assay, COX-2 (LPS-induced PGE2 production)
- Type: cell-based
- Assay Context: Cox-1 U937 IC50 / Cox-2 Whole Blood IC50
Property Label: Selectivity Ratio

CS(=O)(=O)c1ccc(C2=C(c3ccc4cccnc4c3)C(=O)OC2)cc1 [C] ... 1

a. CS(=O)(=O)c1ccc(C2=C(c3ccccc3)C(=O)CC2)cc1 [B]
b. CS(=O)(=O)c1ccc(C2=C(c3cccnc3)C(=O)CC2)cc1 [Example 1]
c. CS(=O)(=O)c1ccc(C2=C(c3ccc(Cl)cn3)C(=O)CC2)cc1 [Example 10]
d. CS(=O)(=O)c1ccc(C2=C(c3ccc(F)cc3)C(=O)CC2)cc1 [A]
Order each entry by recorded Selectivity Ratio, climbing from the minimum. List each label, following the requested order.
d, a, b, c

* * *

- Test System: Cox-2 (Homo sapiens, UniProt P35354)
- Construct: active only after incubation of human whole blood with LPS, which induces COX-2; endogenous in cells
- Sequence (P35354 18-604): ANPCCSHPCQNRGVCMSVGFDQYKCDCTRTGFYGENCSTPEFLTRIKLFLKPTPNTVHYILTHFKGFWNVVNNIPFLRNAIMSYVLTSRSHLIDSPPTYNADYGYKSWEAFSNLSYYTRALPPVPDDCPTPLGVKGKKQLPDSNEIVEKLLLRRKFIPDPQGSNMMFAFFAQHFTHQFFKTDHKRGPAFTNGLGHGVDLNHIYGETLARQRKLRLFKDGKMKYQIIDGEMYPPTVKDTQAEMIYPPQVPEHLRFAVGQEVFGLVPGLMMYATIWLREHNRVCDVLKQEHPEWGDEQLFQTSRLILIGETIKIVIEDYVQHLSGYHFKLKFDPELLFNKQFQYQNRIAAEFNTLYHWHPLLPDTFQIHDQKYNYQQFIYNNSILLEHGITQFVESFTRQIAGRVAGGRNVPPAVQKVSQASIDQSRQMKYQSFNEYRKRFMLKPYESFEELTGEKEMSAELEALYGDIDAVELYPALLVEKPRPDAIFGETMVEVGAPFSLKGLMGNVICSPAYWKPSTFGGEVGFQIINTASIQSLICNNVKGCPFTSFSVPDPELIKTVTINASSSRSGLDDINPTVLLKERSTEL
- Experiment Notes: Human whole blood assay, COX-2 (LPS-induced PGE2 production)
- Assay Context: human whole blood; LPS-induced PGE2; 24 hours at 37° C
- Description: As well, platelets in whole blood contain a large amount of the COX-1 enzyme. Immediately following blood clotting, platelets are activated through a thrombin-mediated mechanism. This reaction results in the production of thromboxane B2 (TxB2) via activation of COX-1. […] Therefore, the degree of selectivity by the test compound can be determined by measuring the levels of PGE2 after LPS induction (COX-2) and TxB2 following blood clotting (COX-1) in the same assay. […]
pIC50: −log10 of the molar value.
Property Label: pIC50

CS(=O)(=O)c1ccc(C2=C(c3cccnc3)C(=O)CC2)cc1 ... 6.24
CS(=O)(=O)c1ccc(C2=C(c3ccc(Cl)cn3)C(=O)CC2)cc1 ... 6.34

A. CS(=O)(=O)c1ccc(C2=C(c3ccc4cccnc4c3)C(=O)OC2)cc1
B. CS(=O)(=O)c1ccc(C2=C(c3ccc(F)cc3)C(=O)CC2)cc1
C. CS(=O)(=O)c1ccc(C2=C(c3ccccc3)C(=O)CC2)cc1
Rank by pIC50 (largest to smallest). List each label, following the requested order.
B, C, A
(B: 7.05, C: 6.72, A: 6.23)

* * *

- Test System: Cox-1 (Homo sapiens)
- Construct: human U-937 cells (which specifically express COX-1); endogenous in cells
- Sequence (P23219 24-599): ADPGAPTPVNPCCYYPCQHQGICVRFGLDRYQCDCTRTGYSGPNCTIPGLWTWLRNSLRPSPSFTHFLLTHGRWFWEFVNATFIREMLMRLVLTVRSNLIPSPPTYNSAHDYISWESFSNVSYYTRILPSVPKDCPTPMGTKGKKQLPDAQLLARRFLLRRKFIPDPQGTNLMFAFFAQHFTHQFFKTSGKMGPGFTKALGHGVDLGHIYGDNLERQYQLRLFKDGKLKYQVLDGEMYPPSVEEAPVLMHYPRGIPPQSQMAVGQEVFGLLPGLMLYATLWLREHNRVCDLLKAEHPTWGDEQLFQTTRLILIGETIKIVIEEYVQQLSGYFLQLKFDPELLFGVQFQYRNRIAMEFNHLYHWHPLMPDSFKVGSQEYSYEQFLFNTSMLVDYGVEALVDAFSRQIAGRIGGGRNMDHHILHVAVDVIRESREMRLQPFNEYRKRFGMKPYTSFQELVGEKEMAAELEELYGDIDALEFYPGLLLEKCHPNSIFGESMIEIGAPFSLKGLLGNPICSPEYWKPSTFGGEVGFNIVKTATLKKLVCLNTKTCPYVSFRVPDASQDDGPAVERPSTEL
- Experiment Notes: Cox-1 U937 (PGE2 synthesis)
pIC50: −log10 of the molar value.
Property Label: pIC50

CS(=O)(=O)c1ccc(C2=C(c3cccnc3)C(=O)CC2)cc1 ... 4.52

A. CS(=O)(=O)c1ccc(C2=C(c3ccc(Cl)cn3)C(=O)CC2)cc1
B. CS(=O)(=O)c1ccc(C2=C(c3ccccc3)C(=O)CC2)cc1
C. CS(=O)(=O)c1ccc(C2=C(c3ccc4cccnc4c3)C(=O)OC2)cc1
Order each entry by recorded pIC50, climbing from the minimum. List each label, following the requested order.
A, B, C
